Where do these numbers come from? They come from PubChem BioAssay AID1963968.

Tested on: 945468-187-T-J3-PDC spheroids with HUVEC/MSC, viability
test description: Anticancer human tumor 945468-187-T-J3-PDC patient-derived rectal carcinoma cell line growth inhibition [PI3K]
assay setup: curve of first compound; second compound 1 µM
pIC50: −log10 of the molar value.
quantity name: pIC50

According to the records, this molecule Cn1nccc1Nc1nccc(-c2ccn(C(CO)c3ccc(Cl)c(F)c3)c(=O)c2)n1 (stereo not drawn) + CC(Nc1ncnc2nc[nH]c12)c1cc2cccc(Cl)c2c(=O)n1-c1ccccc1 displays pIC50 of < 5.00

According to the records, this molecule CC(=O)c1c(C)c2cnc(Nc3ccc(N4CCNCC4)cn3)nc2n(C2CCCC2)c1=O + COc1c(OCCCN2CCOCC2)ccc2c3n(c(=NC(=O)c4cnc(N)nc4)nc12)CCN3 displays pIC50 of > 9.50

According to the records, this molecule CC1(C)CCC(Nc2ncc(C(F)(F)F)c(-c3c[nH]c4c(P(C)(C)=O)c(C#N)ccc34)n2)CN1 (stereo not drawn) + CC(Nc1ccc2c(c1)OCCn1cc(N3C(=O)OCC3C(F)F)nc1-2)C(N)=O displays pIC50 of 5.70

* * *

Give measured viability, T/C for each item. Keep answers brief.
System: 945468-187-T-J3-PDC spheroids with HUVEC/MSC, viability
test description: Anticancer human tumor 945468-187-T-J3-PDC cell line growth inhibition [PI3K];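 further: spheroids exposed to agents for 7 days before viability read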;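 on viability, T/C: 100% = DMSO vehicle control viability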
assay setup: second compound 10 µM; first compound 1 µM; stronger effect = lower value
Source text: Combinatorial screen of targeted agents with the PI3K inhibitors inavolisib, alpelisib, duvelisib, and copanlisib in multi-cell type tumor spheroids A high-throughput screen of multi-cell type tumor spheroids was designed to identify active combinations of targeted small molecules and PI3K pathway inhibitors. […] Compounds. […] If the clinical Cmax for an agent had not been determined, the highest concentration tested was 10 microM. […]
Provide only the numeric value, understood in %.

According to the records, this molecule CCCS(=O)(=O)Nc1ccc(F)c(C(=O)c2c[nH]c3ncc(-c4ccc(Cl)cc4)cc23)c1F + Cc1nc(NC(=O)N2CCCC2C(N)=O)sc1-c1ccnc(C(C)(C)C(F)(F)F)c1 displays viability, T/C of 64.9

According to the records, this molecule CNC(=O)c1ccc(N2C(=S)N(c3ccc(C#N)c(C(F)(F)F)c3)C(=O)C2(C)C)cc1F + Cc1nc(NC(=O)N2CCCC2C(N)=O)sc1-c1ccnc(C(C)(C)C(F)(F)F)c1 displays viability, T/C of 61.2

According to the records, this molecule C#Cc1c(F)ccc2cc(O)cc(-c3ncc4c(N5CC6CCC(C5)N6)nc(OCC56CCCN5CC(F)C6)nc4c3F)c12 (stereo not drawn) + CC(Nc1ncnc2nc[nH]c12)c1cc2cccc(Cl)c2c(=O)n1-c1ccccc1 displays viability, T/C of 126

* * *

System: 945468-187-T-J3-PDC spheroids with HUVEC/MSC, viability
test description: Anticancer human tumor 945468-187-T-J3-PDC cell line growth inhibition [PI3K];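 further: spheroids exposed to agents for 7 days before viability read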;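 on viability, T/C: 100% = DMSO vehicle control viability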
assay setup: second compound 0.01 µM; first compound 1 µM; stronger effect = lower value
quantity name: viability, T/C (%)
Provide only the numeric value, understood in %.

Result for Cn1nccc1Nc1nccc(-c2ccn(C(CO)c3ccc(Cl)c(F)c3)c(=O)c2)n1 (stereo not given) + COc1c(OCCCN2CCOCC2)ccc2c3n(c(=NC(=O)c4cnc(N)nc4)nc12)CCN3 , tested on 945468-187-T-J3-PDC spheroids with HUVEC/MSC, viability, viability, T/C: 97.5

Result for CCCS(=O)(=O)Nc1ccc(F)c(C(=O)c2c[nH]c3ncc(-c4ccc(Cl)cc4)cc23)c1F + COc1c(OCCCN2CCOCC2)ccc2c3n(c(=NC(=O)c4cnc(N)nc4)nc12)CCN3 , tested on 945468-187-T-J3-PDC spheroids with HUVEC/MSC, viability, viability, T/C: 87.7

Result for CC1(C)CCC(CN2CCN(c3ccc(C(=O)NS(=O)(=O)c4ccc(NCC5CCOCC5)c([N+](=O)[O-])c4)c(Oc4cnc5[nH]ccc5c4)c3)CC2)=C(c2ccc(Cl)cc2)C1 + CC(Nc1ccc2c(c1)OCCn1cc(N3C(=O)OCC3C(F)F)nc1-2)C(N)=O , tested on 945468-187-T-J3-PDC spheroids with HUVEC/MSC, viability, viability, T/C: 114

Result for C[C@@H](NC(=O)c1ncnc(N)c1Cl)c1ncc(C(=O)Nc2cc(C(F)(F)F)c(Cl)cn2)s1 + COc1c(OCCCN2CCOCC2)ccc2c3n(c(=NC(=O)c4cnc(N)nc4)nc12)CCN3 , tested on 945468-187-T-J3-PDC spheroids with HUVEC/MSC, viability, viability, T/C: 99.3

Result for CNC(=O)c1ccc(N2C(=S)N(c3ccc(C#N)c(C(F)(F)F)c3)C(=O)C2(C)C)cc1F + COc1c(OCCCN2CCOCC2)ccc2c3n(c(=NC(=O)c4cnc(N)nc4)nc12)CCN3 , tested on 945468-187-T-J3-PDC spheroids with HUVEC/MSC, viability, viability, T/C: 95.2

* * *

Give measured viability, T/C for each item. Keep answers brief.
System: 945468-187-T-J3-PDC spheroids with HUVEC/MSC, viability
test description: Anticancer human tumor 945468-187-T-J3-PDC cell line growth inhibition [PI3K];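 further: spheroids exposed to agents for 7 days before viability read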;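 on viability, T/C: 100% = DMSO vehicle control viability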
assay setup: second compound 0.01 µM; first compound 0.316 µM; stronger effect = lower value
Provide only the numeric value, understood in %.

According to the records, this compound CCCS(=O)(=O)Nc1ccc(F)c(C(=O)c2c[nH]c3ncc(-c4ccc(Cl)cc4)cc23)c1F + CC(Nc1ccc2c(c1)OCCn1cc(N3C(=O)OCC3C(F)F)nc1-2)C(N)=O displays viability, T/C of 104

According to the records, this compound Cn1nccc1Nc1nccc(-c2ccn(C(CO)c3ccc(Cl)c(F)c3)c(=O)c2)n1 (stereo not drawn) + CC(Nc1ccc2c(c1)OCCn1cc(N3C(=O)OCC3C(F)F)nc1-2)C(N)=O displays viability, T/C of 97.5

According to the records, this compound CC1(C)CCC(Nc2ncc(C(F)(F)F)c(-c3c[nH]c4c(P(C)(C)=O)c(C#N)ccc34)n2)CN1 (stereo not drawn) + COc1c(OCCCN2CCOCC2)ccc2c3n(c(=NC(=O)c4cnc(N)nc4)nc12)CCN3 displays viability, T/C of 41.9

According to the records, this compound C#Cc1c(F)ccc2cc(O)cc(-c3ncc4c(N5CC6CCC(C5)N6)nc(OCC56CCCN5CC(F)C6)nc4c3F)c12 (stereo not drawn) + CC(Nc1ccc2c(c1)OCCn1cc(N3C(=O)OCC3C(F)F)nc1-2)C(N)=O displays viability, T/C of 94.6

According to the records, this compound Cn1ncc(Cl)c1-c1cc(C(=O)NC(CN)Cc2cccc(F)c2)sc1Cl (stereo not drawn) + CC(Nc1ccc2c(c1)OCCn1cc(N3C(=O)OCC3C(F)F)nc1-2)C(N)=O displays viability, T/C of 100

According to the records, this compound CCCS(=O)(=O)Nc1ccc(F)c(C(=O)c2c[nH]c3ncc(-c4ccc(Cl)cc4)cc23)c1F + COc1c(OCCCN2CCOCC2)ccc2c3n(c(=NC(=O)c4cnc(N)nc4)nc12)CCN3 displays viability, T/C of 86.2

According to the records, this compound C#Cc1c(F)ccc2cc(O)cc(-c3ncc4c(N5CC6CCC(C5)N6)nc(OCC56CCCN5CC(F)C6)nc4c3F)c12 (stereo not drawn) + COc1c(OCCCN2CCOCC2)ccc2c3n(c(=NC(=O)c4cnc(N)nc4)nc12)CCN3 displays viability, T/C of 96.6

According to the records, this compound CC1(C)CCC(Nc2ncc(C(F)(F)F)c(-c3c[nH]c4c(P(C)(C)=O)c(C#N)ccc34)n2)CN1 (stereo not drawn) + CC(Nc1ccc2c(c1)OCCn1cc(N3C(=O)OCC3C(F)F)nc1-2)C(N)=O displays viability, T/C of 72.3

According to the records, this compound CCN1CCN(Cc2ccc(Nc3ncc(F)c(-c4cc(F)c5nc(C)n(C(C)C)c5c4)n3)nc2)CC1 + CC(Nc1ccc2c(c1)OCCn1cc(N3C(=O)OCC3C(F)F)nc1-2)C(N)=O displays viability, T/C of 123

According to the records, this compound Cn1nccc1Nc1nccc(-c2ccn(C(CO)c3ccc(Cl)c(F)c3)c(=O)c2)n1 (stereo not drawn) + COc1c(OCCCN2CCOCC2)ccc2c3n(c(=NC(=O)c4cnc(N)nc4)nc12)CCN3 displays viability, T/C of 119

According to the records, this compound C=CC(=O)N1CCN(c2nc(=O)n(-c3c(C)ccnc3C(C)C)c3nc(-c4c(O)cccc4F)c(F)cc23)C(C)C1 (stereo not drawn) + COc1c(OCCCN2CCOCC2)ccc2c3n(c(=NC(=O)c4cnc(N)nc4)nc12)CCN3 displays viability, T/C of 94.1

According to the records, this compound CC1(C)CCC(CN2CCN(c3ccc(C(=O)NS(=O)(=O)c4ccc(NCC5CCOCC5)c([N+](=O)[O-])c4)c(Oc4cnc5[nH]ccc5c4)c3)CC2)=C(c2ccc(Cl)cc2)C1 + CC(Nc1ccc2c(c1)OCCn1cc(N3C(=O)OCC3C(F)F)nc1-2)C(N)=O displays viability, T/C of 94

According to the records, this compound CC1(C)CCC(CN2CCN(c3ccc(C(=O)NS(=O)(=O)c4ccc(NCC5CCOCC5)c([N+](=O)[O-])c4)c(Oc4cnc5[nH]ccc5c4)c3)CC2)=C(c2ccc(Cl)cc2)C1 + COc1c(OCCCN2CCOCC2)ccc2c3n(c(=NC(=O)c4cnc(N)nc4)nc12)CCN3 displays viability, T/C of 93.1

According to the records, this compound CC(C)NCC(C(=O)N1CCN(c2ncnc3c2C(C)CC3O)CC1)c1ccc(Cl)cc1 (stereo not drawn) + COc1c(OCCCN2CCOCC2)ccc2c3n(c(=NC(=O)c4cnc(N)nc4)nc12)CCN3 displays viability, T/C of 89.3

According to the records, this compound CCN1CCN(Cc2ccc(Nc3ncc(F)c(-c4cc(F)c5nc(C)n(C(C)C)c5c4)n3)nc2)CC1 + COc1c(OCCCN2CCOCC2)ccc2c3n(c(=NC(=O)c4cnc(N)nc4)nc12)CCN3 displays viability, T/C of 79.4

According to the records, this compound Cn1ncc(Cl)c1-c1cc(C(=O)NC(CN)Cc2cccc(F)c2)sc1Cl (stereo not drawn) + COc1c(OCCCN2CCOCC2)ccc2c3n(c(=NC(=O)c4cnc(N)nc4)nc12)CCN3 displays viability, T/C of 67

According to the records, this compound C[C@@H](NC(=O)c1ncnc(N)c1Cl)c1ncc(C(=O)Nc2cc(C(F)(F)F)c(Cl)cn2)s1 + COc1c(OCCCN2CCOCC2)ccc2c3n(c(=NC(=O)c4cnc(N)nc4)nc12)CCN3 displays viability, T/C of 101

According to the records, this compound CNC(=O)c1ccc(N2C(=S)N(c3ccc(C#N)c(C(F)(F)F)c3)C(=O)C2(C)C)cc1F + CC(Nc1ccc2c(c1)OCCn1cc(N3C(=O)OCC3C(F)F)nc1-2)C(N)=O displays viability, T/C of 115

According to the records, this compound CNC(=O)c1ccc(N2C(=S)N(c3ccc(C#N)c(C(F)(F)F)c3)C(=O)C2(C)C)cc1F + COc1c(OCCCN2CCOCC2)ccc2c3n(c(=NC(=O)c4cnc(N)nc4)nc12)CCN3 displays viability, T/C of 90

According to the records, this compound CC(Cn1ccc(-c2ccc(C#N)c(Cl)c2)n1)NC(=O)c1cc(C(C)O)[nH]n1 (stereo not drawn) + CC(Nc1ccc2c(c1)OCCn1cc(N3C(=O)OCC3C(F)F)nc1-2)C(N)=O displays viability, T/C of 93.6

According to the records, this compound CC(C)NCC(C(=O)N1CCN(c2ncnc3c2C(C)CC3O)CC1)c1ccc(Cl)cc1 (stereo not drawn) + CC(Nc1ccc2c(c1)OCCn1cc(N3C(=O)OCC3C(F)F)nc1-2)C(N)=O displays viability, T/C of 104

According to the records, this compound C[C@@H](NC(=O)c1ncnc(N)c1Cl)c1ncc(C(=O)Nc2cc(C(F)(F)F)c(Cl)cn2)s1 + CC(Nc1ccc2c(c1)OCCn1cc(N3C(=O)OCC3C(F)F)nc1-2)C(N)=O displays viability, T/C of 101

According to the records, this compound CC(Cn1ccc(-c2ccc(C#N)c(Cl)c2)n1)NC(=O)c1cc(C(C)O)[nH]n1 (stereo not drawn) + COc1c(OCCCN2CCOCC2)ccc2c3n(c(=NC(=O)c4cnc(N)nc4)nc12)CCN3 displays viability, T/C of 103
